So I've got a bunch of compounds here, and I need their pKd values.
Please express pKd as -log10 of the molar concentration.

Query string: State pKd (FAK (Homo sapiens (Human), UniProt Q05397)) of Cc1ccc(C(=O)Nc2ccc(CN3CCN(C)CC3)c(C(F)(F)F)c2)cc1C#Cc1c(N)ncc2ccc(Cl)cc12 .
Result string: 5.29

Query string: Report measured pKd on FAK (Homo sapiens (Human), UniProt Q05397); entry: Cc1ccc(C(=O)Nc2ccc(CN3CCN(C)CC3)c(C(F)(F)F)c2)cc1C#Cc1cnc(N)c2ncccc12
Result string: 5.33

---

- Test system: MOLM14
- experimentalProtocol: Anti-proliferative effects in leukemia panel
- Format: cell-based
- protocolConditions: Homo sapiens, MOLM-14
assayMetric: IC50 (µM)
# output: bare number, implied unit µM

Query string: Report measured IC50; entry is N=C(NO)c1ccc(C#Cc2c(N)ncc3ccc(Cl)cc23)cc1
Result string: 0.05

Query string: Look up and report measured IC50 for this entry: Nc1ncc2ccc(Cl)cc2c1C#Cc1ccc(C2=NC(C3CC3)CN2)cc1 (stereo not drawn)
Result string: 0.1

Query string: Return value of IC50 for input Nc1ncc2ccc(Cl)cc2c1C#Cc1ccc(C2=NCCN2CCN2CCCCC2)cc1 , no commentary.
Result string: 0.3

---

- subjectOfTest: TIE2/TEK (Homo sapiens (Human))
- Sequence (Q02763 23-1124): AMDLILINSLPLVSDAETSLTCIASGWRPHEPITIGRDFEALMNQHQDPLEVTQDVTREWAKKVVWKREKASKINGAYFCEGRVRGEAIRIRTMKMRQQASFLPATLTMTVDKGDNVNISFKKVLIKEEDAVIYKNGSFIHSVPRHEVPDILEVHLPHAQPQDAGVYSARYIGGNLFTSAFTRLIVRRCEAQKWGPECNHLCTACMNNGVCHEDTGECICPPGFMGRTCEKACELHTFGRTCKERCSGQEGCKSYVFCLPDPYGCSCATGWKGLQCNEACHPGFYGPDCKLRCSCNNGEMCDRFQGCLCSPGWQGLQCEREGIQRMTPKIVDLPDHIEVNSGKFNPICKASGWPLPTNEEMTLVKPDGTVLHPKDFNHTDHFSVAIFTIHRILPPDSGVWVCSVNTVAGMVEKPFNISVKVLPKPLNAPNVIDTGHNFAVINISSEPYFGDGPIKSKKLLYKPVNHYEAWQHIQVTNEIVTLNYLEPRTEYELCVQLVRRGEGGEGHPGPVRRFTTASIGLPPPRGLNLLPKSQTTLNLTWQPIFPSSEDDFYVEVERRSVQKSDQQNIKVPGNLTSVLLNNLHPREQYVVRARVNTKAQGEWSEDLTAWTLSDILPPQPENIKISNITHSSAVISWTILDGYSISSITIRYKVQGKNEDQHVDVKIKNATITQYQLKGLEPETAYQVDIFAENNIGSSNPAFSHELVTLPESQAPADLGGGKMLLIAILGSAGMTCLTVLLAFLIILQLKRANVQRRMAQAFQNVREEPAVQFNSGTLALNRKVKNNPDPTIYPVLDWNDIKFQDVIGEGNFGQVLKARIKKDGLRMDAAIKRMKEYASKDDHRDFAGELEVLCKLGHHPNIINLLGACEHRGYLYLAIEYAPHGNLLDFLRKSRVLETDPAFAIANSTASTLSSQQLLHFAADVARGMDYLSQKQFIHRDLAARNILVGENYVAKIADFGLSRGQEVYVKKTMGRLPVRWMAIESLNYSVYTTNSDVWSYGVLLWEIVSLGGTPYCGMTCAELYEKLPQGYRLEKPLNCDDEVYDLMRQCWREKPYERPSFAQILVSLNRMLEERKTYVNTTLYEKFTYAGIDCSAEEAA
- experimentalProtocol: Reaction Biology HotSpot kinase assay
- Type: biochemical
- protocolConditions: 500 nM compound; read-out: Percentage kinase inhibition TIE2/TEK
assayMetric: inhibition at 0.5 µM (%)
Express it in %; write the number only.

Query string: Name the recorded inhibition at 0.5 µM of the item Cc1ccc(C(=O)Nc2ccc(CN3CCN(C)CC3)c(C(F)(F)F)c2)cc1C#Cc1c(N)ncc2ccc(Cl)cc12 in your answer.
Result string: 97

Query string: Please list inhibition at 0.5 µM recorded for the compound Cc1ccc(C(=O)Nc2ccc(CN3CCN(C)CC3)c(C(F)(F)F)c2)cc1C#Cc1cnc(N)c2ccccc12
Result string: 99

Query string: Complete the entry with inhibition at 0.5 µM for Cc1ccc(C(=O)Nc2ccc(CN3CCN(C)CC3)c(C(F)(F)F)c2)cc1C#Cc1cc(N)nc2ccccc12
Result string: 0

Query string: # return recorded inhibition at 0.5 µM for input COc1cc2nc(N)nc(C#Cc3cc(C(=O)Nc4ccc(CN5CCN(C)CC5)c(C(F)(F)F)c4)ccc3C)c2cc1OC
Result string: 47

Query string: Entry Cc1ccc(C(=O)Nc2ccc(CN3CCN(C)CC3)c(C(F)(F)F)c2)cc1C#Cc1cnc(N)c2ncccc12 needs its inhibition at 0.5 µM filled in; supply it.
Result string: 100

---

- subjectOfTest: RET (Homo sapiens (Human))
- Sequence (P07949 29-1114): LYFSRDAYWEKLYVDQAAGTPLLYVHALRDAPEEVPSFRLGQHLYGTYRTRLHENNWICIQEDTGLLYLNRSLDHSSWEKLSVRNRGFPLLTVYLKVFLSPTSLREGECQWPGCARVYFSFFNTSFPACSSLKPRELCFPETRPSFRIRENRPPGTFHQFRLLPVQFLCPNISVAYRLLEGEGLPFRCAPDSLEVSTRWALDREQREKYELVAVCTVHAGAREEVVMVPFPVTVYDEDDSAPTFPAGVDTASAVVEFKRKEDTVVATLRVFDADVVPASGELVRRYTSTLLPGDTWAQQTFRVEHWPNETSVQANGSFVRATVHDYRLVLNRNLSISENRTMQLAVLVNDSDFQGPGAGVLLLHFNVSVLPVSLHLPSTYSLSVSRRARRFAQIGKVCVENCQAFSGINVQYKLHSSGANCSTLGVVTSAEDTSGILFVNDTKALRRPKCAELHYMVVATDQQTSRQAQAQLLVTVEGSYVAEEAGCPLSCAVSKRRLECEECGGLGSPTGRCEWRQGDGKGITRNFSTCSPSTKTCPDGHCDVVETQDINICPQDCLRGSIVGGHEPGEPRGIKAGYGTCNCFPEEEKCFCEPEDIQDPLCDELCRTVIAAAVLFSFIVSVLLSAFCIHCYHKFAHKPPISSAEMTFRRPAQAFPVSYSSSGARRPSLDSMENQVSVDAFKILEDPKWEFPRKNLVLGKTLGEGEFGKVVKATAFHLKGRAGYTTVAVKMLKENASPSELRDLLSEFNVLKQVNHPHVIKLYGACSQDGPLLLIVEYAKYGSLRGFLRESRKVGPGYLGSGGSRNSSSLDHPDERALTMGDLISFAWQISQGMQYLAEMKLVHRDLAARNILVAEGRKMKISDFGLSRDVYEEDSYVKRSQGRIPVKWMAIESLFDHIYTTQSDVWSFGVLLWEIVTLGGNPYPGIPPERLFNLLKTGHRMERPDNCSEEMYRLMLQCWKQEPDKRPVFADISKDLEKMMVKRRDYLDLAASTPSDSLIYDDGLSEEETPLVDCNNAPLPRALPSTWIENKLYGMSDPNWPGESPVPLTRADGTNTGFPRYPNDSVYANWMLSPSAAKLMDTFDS
- experimentalProtocol: Reaction Biology HotSpot kinase assay
- Format: biochemical
- protocolConditions: 500 nM compound; read-out: Percentage kinase inhibition RET
assayMetric: inhibition at 0.5 µM (%)
Please state the figure in %; there is no need to write the unit.

Query string: State its inhibition at 0.5 µM: Cc1ccc(C(=O)Nc2ccc(CN3CCN(C)CC3)c(C(F)(F)F)c2)cc1C#Cc1cnc(N)c2ncccc12 [HSN356]
Result string: 100

Query string: Output measured inhibition at 0.5 µM for this item: Cc1ccc(C(=O)Nc2ccc(CN3CCN(C)CC3)c(C(F)(F)F)c2)cc1C#Cc1c(N)ncc2ccc(Cl)cc12 [HSN286]
Result string: 100

Query string: // fetch inhibition at 0.5 µM given entry Cc1ccc(C(=O)NCCN2CCCCC2)cc1C#Cc1c(N)ncc2ccc(Cl)cc12 [HSN248]
Result string: 52

Query string: Name the recorded inhibition at 0.5 µM of the compound listed here: Cc1ccc(C(=O)Nc2ccc(CN3CCN(C)CC3)c(C(F)(F)F)c2)cc1C#Cc1cnc(N)c2ccccc12 [HSN334]
Result string: 100

Query string: Output measured inhibition at 0.5 µM for this item: COc1cc2nc(N)nc(C#Cc3cc(C(=O)Nc4ccc(CN5CCN(C)CC5)c(C(F)(F)F)c4)ccc3C)c2cc1OC [HSN325]
Result string: 96

Query string: Please supply the value of reported inhibition at 0.5 µM for the item CCN(CC)CCNC(=O)c1ccc(C)c(C#Cc2c(N)ncc3ccc(Cl)cc23)c1 [HSN247]
Result string: 3

---

- subjectOfTest: BRAF (Homo sapiens (Human), UniProt P15056)
- Sequence (P15056 whole entry): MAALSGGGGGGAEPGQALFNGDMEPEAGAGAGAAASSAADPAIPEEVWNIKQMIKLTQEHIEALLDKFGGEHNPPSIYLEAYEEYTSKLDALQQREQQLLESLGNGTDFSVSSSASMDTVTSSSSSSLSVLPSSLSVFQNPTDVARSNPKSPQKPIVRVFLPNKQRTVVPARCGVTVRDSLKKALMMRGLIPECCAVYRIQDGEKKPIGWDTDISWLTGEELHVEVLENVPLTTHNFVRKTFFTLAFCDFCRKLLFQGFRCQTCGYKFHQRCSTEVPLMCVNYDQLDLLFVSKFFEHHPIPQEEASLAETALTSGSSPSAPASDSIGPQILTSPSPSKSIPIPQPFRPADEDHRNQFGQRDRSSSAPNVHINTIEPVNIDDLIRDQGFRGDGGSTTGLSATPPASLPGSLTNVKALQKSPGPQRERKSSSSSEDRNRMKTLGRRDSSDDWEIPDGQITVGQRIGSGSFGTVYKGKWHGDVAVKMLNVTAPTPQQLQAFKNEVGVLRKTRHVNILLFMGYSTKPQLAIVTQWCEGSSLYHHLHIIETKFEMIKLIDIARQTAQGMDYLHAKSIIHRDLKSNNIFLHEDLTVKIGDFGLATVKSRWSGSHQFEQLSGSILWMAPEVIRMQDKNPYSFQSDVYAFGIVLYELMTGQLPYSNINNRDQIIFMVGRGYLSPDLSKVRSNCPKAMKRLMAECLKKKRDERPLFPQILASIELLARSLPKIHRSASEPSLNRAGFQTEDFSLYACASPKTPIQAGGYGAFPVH
- experimentalProtocol: Reaction Biology HotSpot kinase assay
- Assay type: biochemical
- protocolConditions: 500 nM compound; read-out: Percentage kinase inhibition BRAF
assayMetric: inhibition at 0.5 µM (%)
Quick note: give the figure in %, leave out the unit.

Query string: Give the value of inhibition at 0.5 µM reported for the following: Cc1ccc(C(=O)Nc2ccc(CN3CCN(C)CC3)c(C(F)(F)F)c2)cc1C#Cc1cc(N)nc2ccccc12 [HSN285]
Result string: 64

Query string: Name the recorded inhibition at 0.5 µM of the compound listed here: Cc1ccc(C(=O)Nc2ccc(CN3CCN(C)CC3)c(C(F)(F)F)c2)cc1C#Cc1c(N)ncc2ccc(Cl)cc12 [HSN286]
Result string: 97

Query string: Return inhibition at 0.5 µM for the following compound: COc1cc2nc(N)nc(C#Cc3cc(C(=O)Nc4ccc(CN5CCN(C)CC5)c(C(F)(F)F)c4)ccc3C)c2cc1OC [HSN325]
Result string: 38

Query string: Tell me its inhibition at 0.5 µM given Cc1ccc(C(=O)Nc2ccc(CN3CCN(C)CC3)c(C(F)(F)F)c2)cc1C#Cc1cnc(N)c2ccccc12 [HSN334] as the entry.
Result string: 96

Query string: Look up and state reported inhibition at 0.5 µM for Cc1ccc(C(=O)Nc2ccc(CN3CCN(C)CC3)c(C(F)(F)F)c2)cc1C#Cc1cnc(N)c2ncccc12 [HSN356]
Result string: 100

---

Would you kindly list inhibition at 0.5 µM for each of these molecules?
- subjectOfTest: YES/YES1 (Homo sapiens (Human), UniProt P07947)
- Sequence (P07947 whole entry): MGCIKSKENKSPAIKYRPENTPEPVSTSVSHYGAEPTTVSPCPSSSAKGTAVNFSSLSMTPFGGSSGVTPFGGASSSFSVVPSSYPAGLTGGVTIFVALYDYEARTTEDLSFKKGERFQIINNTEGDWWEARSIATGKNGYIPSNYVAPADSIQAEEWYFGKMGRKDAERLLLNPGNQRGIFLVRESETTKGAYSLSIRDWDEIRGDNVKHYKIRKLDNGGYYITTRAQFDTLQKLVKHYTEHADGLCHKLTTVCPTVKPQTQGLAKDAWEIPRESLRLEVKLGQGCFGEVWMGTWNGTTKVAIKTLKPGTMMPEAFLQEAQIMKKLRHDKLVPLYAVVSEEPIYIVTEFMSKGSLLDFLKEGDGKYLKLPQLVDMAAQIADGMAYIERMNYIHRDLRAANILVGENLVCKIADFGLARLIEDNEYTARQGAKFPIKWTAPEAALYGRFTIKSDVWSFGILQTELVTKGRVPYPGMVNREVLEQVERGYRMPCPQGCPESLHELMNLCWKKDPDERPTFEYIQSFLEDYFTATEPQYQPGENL
- experimentalProtocol: Reaction Biology HotSpot kinase assay
- Format: biochemical
- protocolConditions: 500 nM compound; read-out: Percentage kinase inhibition YES/YES1
Your answer should be a plain number; it is taken to be in %.

Query string: Find the measured inhibition at 0.5 µM of Cc1ccc(C(=O)Nc2ccc(CN3CCN(C)CC3)c(C(F)(F)F)c2)cc1C#Cc1c(N)ncc2ccc(Cl)cc12 with YES/YES1 (Homo sapiens (Human), UniProt P07947) as test system.
Result string: 100

Query string: Enter recorded inhibition at 0.5 µM with YES/YES1 (Homo sapiens (Human), UniProt P07947) for Cc1ccc(C(=O)Nc2ccc(CN3CCN(C)CC3)c(C(F)(F)F)c2)cc1C#Cc1cnc(N)c2ncccc12 here.
Result string: 100

Query string: Quote inhibition at 0.5 µM with test system YES/YES1 (Homo sapiens (Human), UniProt P07947) for COc1cc2nc(N)nc(C#Cc3cc(C(=O)Nc4ccc(CN5CCN(C)CC5)c(C(F)(F)F)c4)ccc3C)c2cc1OC
Result string: 41

Query string: Report inhibition at 0.5 µM from YES/YES1 (Homo sapiens (Human), UniProt P07947) testing of Cc1ccc(C(=O)Nc2ccc(CN3CCN(C)CC3)c(C(F)(F)F)c2)cc1C#Cc1cc(N)nc2ccccc12
Result string: 0

Query string: Provide inhibition at 0.5 µM, tested on YES/YES1 (Homo sapiens (Human), UniProt P07947), for Cc1ccc(C(=O)Nc2ccc(CN3CCN(C)CC3)c(C(F)(F)F)c2)cc1C#Cc1cnc(N)c2ccccc12 .
Result string: 100

---

Field: inhibition at 0.5 µM. Provide a value for each of the compounds that follow.
- subjectOfTest: AXL (Homo sapiens (Human), UniProt P30530)
- Sequence (P30530 26-894): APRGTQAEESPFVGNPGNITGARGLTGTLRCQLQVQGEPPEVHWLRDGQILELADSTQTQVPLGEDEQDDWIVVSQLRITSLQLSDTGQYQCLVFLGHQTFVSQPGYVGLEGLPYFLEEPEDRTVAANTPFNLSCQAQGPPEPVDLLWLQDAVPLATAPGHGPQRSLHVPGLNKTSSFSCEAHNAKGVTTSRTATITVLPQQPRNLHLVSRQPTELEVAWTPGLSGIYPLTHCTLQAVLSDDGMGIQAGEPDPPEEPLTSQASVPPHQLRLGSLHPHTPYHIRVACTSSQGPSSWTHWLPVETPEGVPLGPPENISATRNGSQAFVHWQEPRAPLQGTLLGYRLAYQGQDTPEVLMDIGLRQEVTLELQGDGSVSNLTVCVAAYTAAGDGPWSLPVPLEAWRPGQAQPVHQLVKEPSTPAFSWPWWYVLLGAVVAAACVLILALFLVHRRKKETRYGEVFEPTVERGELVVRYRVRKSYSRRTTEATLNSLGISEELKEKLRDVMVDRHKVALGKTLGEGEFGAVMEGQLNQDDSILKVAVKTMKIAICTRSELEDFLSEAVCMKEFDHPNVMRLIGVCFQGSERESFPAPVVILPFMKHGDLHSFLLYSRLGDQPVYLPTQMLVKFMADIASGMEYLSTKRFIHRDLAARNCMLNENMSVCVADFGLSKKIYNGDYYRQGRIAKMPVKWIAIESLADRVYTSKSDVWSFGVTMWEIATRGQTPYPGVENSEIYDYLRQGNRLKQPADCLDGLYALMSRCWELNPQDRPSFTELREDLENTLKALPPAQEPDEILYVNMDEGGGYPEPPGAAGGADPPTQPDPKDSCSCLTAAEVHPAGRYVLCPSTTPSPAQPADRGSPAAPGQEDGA
- experimentalProtocol: Reaction Biology HotSpot kinase assay
- Format: biochemical
- protocolConditions: 500 nM compound; read-out: Percentage kinase inhibition AXL
State just the number; it will be interpreted in %.

Query string: Consider the compound Cc1ccc(C(=O)Nc2ccc(CN3CCN(C)CC3)c(C(F)(F)F)c2)cc1C#Cc1cnc(N)c2ncccc12 [HSN356] and give its recorded inhibition at 0.5 µM.
Result string: 4

Query string: # return recorded inhibition at 0.5 µM for entry Cc1ccc(C(=O)Nc2ccc(CN3CCN(C)CC3)c(C(F)(F)F)c2)cc1C#Cc1c(N)ncc2ccc(Cl)cc12 [HSN286]
Result string: 3

Query string: Fill in reported inhibition at 0.5 µM for this entry: Cc1ccc(C(=O)Nc2ccc(CN3CCN(C)CC3)c(C(F)(F)F)c2)cc1C#Cc1cc(N)nc2ccccc12 [HSN285]
Result string: 0

Query string: Given COc1cc2nc(N)nc(C#Cc3cc(C(=O)Nc4ccc(CN5CCN(C)CC5)c(C(F)(F)F)c4)ccc3C)c2cc1OC [HSN325] , respond with its inhibition at 0.5 µM.
Result string: 3

Query string: Give recorded inhibition at 0.5 µM. Cc1ccc(C(=O)Nc2ccc(CN3CCN(C)CC3)c(C(F)(F)F)c2)cc1C#Cc1cnc(N)c2ccccc12 [HSN334]
Result string: 5
